System: Streptococcus pyogenes
protocol_summary: Minimum inhibitory concentration was evaluated in vitro against Streptococcus pyogenes C 203
Format: functional
Lab note - cut at 0.01 µg/mL for MIC: True if strictly below, False if not.

# compound, class_name
data = [
    ("CN[C@H](C)[C@H]1CCN(c2c(F)c(N)c3c(=O)c(C(=O)O)cn(C4CC4)c3c2F)C1", "False"),
    ("C[C@@H](N)[C@H]1CCN(c2cc3c(cc2F)c(=O)c(C(=O)O)cn3C2CC2)C1 (racemic)", "True"),
    ("CN[C@@H](C)[C@@H]1CCN(c2nc3c(cc2F)c(=O)c(C(=O)O)cn3C2CC2)C1", "False"),
    ("C[C@H](N)[C@H]1CCN(c2c(F)c(N)c3c(=O)c(C(=O)O)cn(C4CC4)c3c2F)C1 (stereo in doubt; 32F-S,R)", "False"),
    ("CN[C@@H](C)[C@@H]1CCN(c2nc3c(cc2F)c(=O)c(C(=O)O)cn3C2CC2)C1 (mixture of isomers)", "False"),
]

# TODO verify MIC < 0.01 µg/mL strictly for this compound: CCN[C@@H](C)[C@@H]1CCN(c2c(F)c(N)c3c(=O)c(C(=O)O)cn(C4CC4)c3c2F)C1 (stereo in doubt; 32H-S,R)
False

API: query returns whether the compound falls strictly under 0.01 µg/mL in MIC. Query: C[C@@H](N)[C@H]1CCN(c2nc3c(cc2F)c(=O)c(C(=O)O)cn3C2CC2)C1 (racemic)
False

Hello, is MIC of the following compound strictly smaller than 0.01 µg/mL? CCN[C@H](C)[C@H]1CCN(c2cc3c(cc2F)c(=O)c(C(=O)O)cn3C2CC2)C1 (mixture of isomers; form 1)
False

Hello, I'm reviewing records and need to know if MIC of C[C@@H](N)[C@H]1CCN(c2cc3c(cc2F)c(=O)c(C(=O)O)cn3C2CC2)C1 is below 0.01 µg/mL. Could you check?
False

Field: below-cutoff. Rule: recorded MIC strictly less than 0.01 µg/mL. Subject: CN[C@H](C)[C@H]1CCN(c2c(F)c(N)c3c(=O)c(C(=O)O)cn(C4CC4)c3c2F)C1 (mixture of isomers)
True

Is MIC of C[C@@H](N)[C@H]1CCN(c2nc3c(cc2F)c(=O)c(C(=O)O)cn3C2CC2)C1 (mixture of isomers) strictly below 0.01 µg/mL?
False

These data points were gathered from ChEMBL document CHEMBL1126988.
